FYI, the data here is from patent US20200087408A1.

Target: T1, extracellular domain of human IL-36R (human, UniProt Q9HB29 20-335)
T1 construct: extracellular domain; Immobilised on the chip in the BIACORE assay; soluble and bead-coupled in the KINEXA assay; also called soluble human IL-36R extracellular domain
T1 sequence (looked up): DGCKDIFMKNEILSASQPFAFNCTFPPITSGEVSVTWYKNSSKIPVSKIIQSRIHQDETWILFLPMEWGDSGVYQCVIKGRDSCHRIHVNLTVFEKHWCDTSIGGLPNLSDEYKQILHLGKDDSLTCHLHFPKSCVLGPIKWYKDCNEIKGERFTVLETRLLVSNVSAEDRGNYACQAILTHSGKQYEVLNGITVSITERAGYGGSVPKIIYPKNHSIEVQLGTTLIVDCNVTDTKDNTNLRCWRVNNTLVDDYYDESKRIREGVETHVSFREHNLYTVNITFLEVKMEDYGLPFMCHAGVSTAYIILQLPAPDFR
Assay: BIACORE T200 SPR, human IL-36R extracellular domain immobilised, antibody injected
This section presents binders with their documented Kd values.
Express your answer in pM, writing the number without its unit.

# annotated cases, reported Kd shown
Humanized (HzD) 1D9 (APE5281) (antibody, V domains shown, also called 1D9 Humanized) VH: QVQLMQSGAEVKKPGASVKVSCKASGFTFTSYDINWVRQAPGQRLEWMGWIYPGDSSTKYNEKFKGRVTITADKSANTAYMELASLRSEDTAVYFCTRSFYTMDYWGQGTTVTVSS VL: DIVMTQSPLSLPVTPGEPASISCRSSKSLLHSNANTYLYWFLQKPGQSPQLLISRMSNLASGVPDRFSGSGSGTDFTLKISRVEAEDVGVYYCMQHLEYPFTFGQGTKLEIK = 77
Hzd 5D3 (APE6194) (antibody, V domains shown, also called 5D3 Humanized) VH: QVQLVQSGAEVKKPGASVKVSCKASGYTFTNYWMNWVRQAPRQGLEWMGMFHPYGDVTRLNQKFKDRVTMTRDTSTSTVYMELSSLRSEDTAVYYCARTTSMIIGGFAYWGQGTLVTVSS VL: DIVMTQTPLSLSVTPGQPASISCRSSKSLLHRNAITYFYWYLHKPGQPPQLLIYQMSNLASGVPDRFSGSGSGTDFTLKISRVEAEDVGVYYCAQNLELPLTFGGGTKVEIK = 22

Kindly review the next binder as well.
Return value of Kd for input Hzd 5D3 (APE6060) (antibody, V domains shown, also called 5D3 Humanized) VH: QVQLVQSGAEVKKPGASVKVSCKASGYTFTNYWMNWVRQAPRQGLEWMGMFHPTGDVTRLNQKFKDRVTMTRDTSTSTVYMELSSLRSEDTAVYYCARTTSMIIGGFAYWGQGTLVTVSS VL: DIVMTQTPLSLSVTPGQPASISCRSSKSLLHRNAITYFYWYLQKPGQPPQLLIYQMSNLASGVPDRFSGSGSGTDFTLKISRVEAEDVGVYYCAQNLELPLTFGGGTKVEIK , no commentary.
50
